tested on: PRMT1 (protein arginine N-methyltransferase 1); assay: PRMT1 binders on small-molecule microarrays, primary screen, biochemical, small-molecule microarray, 635 nm fluorescence (AID 1088); conditions: small-molecule microarray binding, higher = more signal;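 note: binding of Prmt1 protein to compounds spotted on small-molecule microarray slides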
The entries below come with measured composite z-score values attached.
Just the number, please, no unit attached.

// worked examples, composite z-score included
# compoundString, assayedTarget, measurement
measured = [
    ("C[C@H]1CC[C@H]2C(=O)O[C@H](COc3ccc(C(C)(C)C)cc3)CN2[C@@H]1c1ccc(Br)cc1", "PRMT1 (protein arginine N-methyltransferase 1)", 0.27),
    ("CCc1cc2c(nc1CC)CCN(CCC(C)=NOC[C@H]1O[C@H](c3ccccc3)C=C[C@@H]1Oc1ccc(OC)cc1)C2", "PRMT1 (protein arginine N-methyltransferase 1)", 0.841),
    ("Cc1cc2c(nc1C)CCCN2CC(O)CN1CCCc2nc(C)c(C)cc21", "PRMT1 (protein arginine N-methyltransferase 1)", 0.692),
]

Query: composite z-score; subject: `CC(C)=NO[C@H](C)c1cn([C@H](CO)Cc2ccccc2)nn1`
0.325

Query: composite z-score; subject: `CCC(=O)[C@@]1(O)C(=O)N2C(=C3C(=O)OCC[C@@H]31)N(Cc1ccccc1)C(C)=C(C(=O)OC)[C@H]2c1ccccc1`
0.374

Origin of values: PubChem BioAssay
